Taken from patent US9487501B2.

Recorded log10 Ki for the following compounds
- Target Or System: rat TAAR1 (Rattus norvegicus (Rat), UniProt Q923Y9)
- Sequence (Q923Y9 whole entry): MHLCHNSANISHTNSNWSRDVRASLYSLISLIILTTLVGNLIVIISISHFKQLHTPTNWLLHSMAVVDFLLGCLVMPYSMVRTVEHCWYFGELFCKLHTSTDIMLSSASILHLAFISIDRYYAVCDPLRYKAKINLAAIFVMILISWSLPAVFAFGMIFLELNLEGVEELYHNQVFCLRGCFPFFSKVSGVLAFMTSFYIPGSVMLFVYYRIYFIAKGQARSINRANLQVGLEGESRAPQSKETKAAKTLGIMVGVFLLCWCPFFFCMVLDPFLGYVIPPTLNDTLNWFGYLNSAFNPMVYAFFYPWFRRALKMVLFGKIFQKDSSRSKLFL
- Test Description: Radioligand binding assay on rat TAAR1
- Condition: read-out: Ki (μM) rat; rat TAAR1, membranes of HEK-293 cells, radioligand displacement
Counter-ions that a name gives are not always drawn.
All values: base-10 log of Ki in µM.

Known log10 Ki results, listed for orientation:
O=C(Nc1ccc([C@H]2CNCCO2)cc1)c1cnn(-c2ccc(OC(F)(F)F)cc2)c1 [Example 26, hydrochloride]: -3.30
N#Cc1cncc(-n2cc(C(=O)Nc3ccc([C@H]4CNCCO4)cc3)cn2)n1 [Example 47, hydrochloride]: -1.46
Cc1cncc(-n2cc(C(=O)Nc3ccc([C@H]4CNCCO4)cc3)cn2)n1 [Example 39, hydrochloride]: -1.36
N#Cc1ccc(-n2cc(C(=O)Nc3ccc([C@H]4CNCCO4)cc3)cn2)nc1 [Example 8, hydrochloride]: -1.83

[ask] Which log10 Ki is reported with rat TAAR1 (Rattus norvegicus (Rat), UniProt Q923Y9) for this entry: O=C(Nc1ccc([C@H]2CNCCO2)cc1)c1cnn(-c2nccnc2Cl)c1 [Example 41, hydrochloride] ?
[reply] -1.09

[ask] // query: Cc1c(C(=O)Nc2ccc([C@H]3CNCCO3)cc2)cnn1-c1ccc(C#N)cc1 [Example 35, hydrochloride]
[reply] -0.78

[ask] Next: N#Cc1cc(F)ccc1-n1cc(C(=O)Nc2ccc([C@H]3CNCCO3)cc2)cn1 [Example 25, hydrochloride]
[reply] -2.11

[ask] Please give the result for O=C(Nc1ccc([C@H]2CNCCO2)cc1)c1cnn(-c2ccnc(Cl)n2)c1 [Example 36, hydrochloride] too.
[reply] -2.27

[ask] Item: O=C(Nc1ccc([C@@H]2CNCCO2)cc1)c1cnn(-c2ccc(F)cc2)c1 [Example 12, hydrochloride]
[reply] -2.96

====

- Target Or System: rat TAAR1 (Rattus norvegicus (Rat), UniProt Q923Y9)
- Test Description: Radioligand binding assay on rat TAAR1;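 note: stably transfected HEK293 cell membranes with a tritiated radioligand, 1 h incubation at 4 °C, nonspecific binding taken as binding with 10 µM unlabeled ligand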
- Condition: read-out: Ki (μM) rat; rat TAAR1, membranes of HEK-293 cells, radioligand displacement
Structures can show the parent of a compound that is named as a salt.
# reported log10 Ki; entries follow
Note the log scale: values are log10 of Ki expressed in µM.

O=C(Nc1ccc([C@H]2CNCCO2)cc1)c1cnn(-c2ccc(C(F)(F)F)cn2)c1 [Example 11, hydrochloride]: -2.64

[ask] For the compound O=C(Nc1ccc([C@H]2CNCCO2)cc1)c1cnn(-c2ccc(C(F)(F)F)nc2)c1 [Example 51, hydrochloride] , what log10 Ki is on record?
[reply] -2.32

[ask] Field entry: Cc1c(C(=O)Nc2ccc([C@H]3CNCCO3)cc2)cnn1-c1ccc(OC(F)F)cc1 [Example 31, hydrochloride]
[reply] -1.35

[ask] Follow-up item: Cc1nn(-c2ccc(OC(F)F)cc2)cc1C(=O)Nc1ccc([C@H]2CNCCO2)cc1 [Example 32, hydrochloride]
[reply] -3.70

[ask] Further, for Cc1cnc(-n2cc(C(=O)Nc3ccc([C@H]4CNCCO4)cc3)cn2)cn1 [Example 40, hydrochloride] ?
[reply] -0.90

[ask] Here is the next compound: O=C(Nc1ccc([C@H]2CNCCO2)cc1)c1cnn(-c2ccnc(C(F)(F)F)n2)c1 [Example 34, hydrochloride]
[reply] -2.46

[ask] Entry to check: N#Cc1ccc(-n2cc(C(=O)Nc3ccc([C@H]4CNCCO4)cc3)cn2)c(F)c1 [Example 23, hydrochloride]
[reply] -2.15

[ask] What about O=C(Nc1ccc([C@H]2CNCCO2)cc1)c1cnn(-c2nccc(C(F)(F)F)n2)c1 [Example 48, hydrochloride] ?
[reply] -0.83

[ask] Next entry: N#Cc1ccc(-n2cc(C(=O)Nc3ccc([C@H]4CNCCO4)cc3)cn2)cc1F [Example 24, hydrochloride]
[reply] -1.81

[ask] Could you do the same for O=C(Nc1ccc([C@H]2CNCCO2)cc1)c1cnn(-c2ccc3c(c2)OC(F)(F)O3)c1 [Example 29, hydrochloride] , please?
[reply] -2.85

[ask] Next entry: O=C(Nc1ccc([C@H]2CNCCO2)cc1)c1cnn(-c2cc(C3CC3)ncn2)c1 [Example 56, hydrochloride]
[reply] -2.28

[ask] Proceed to O=C(Nc1ccc([C@H]2CNCCO2)cc1)c1cnn(-c2cnc(Cl)cn2)c1 [Example 46, hydrochloride]
[reply] -2.25

[ask] Record: O=C(Nc1ccc([C@H]2CNCCO2)cc1)c1cnn(-c2cnc(C(F)(F)F)nc2)c1 [Example 45, hydrochloride]
[reply] -2.23

[ask] Same for O=C(Nc1ccc([C@H]2CNCCO2)cc1)c1cnn(-c2ccnc(Br)c2)c1 [Example 16, hydrochloride]
[reply] -2.54

[ask] Same read-out for O=C(Nc1ccc([C@H]2CNCCO2)cc1)c1cnn(-c2ccnc(Cl)c2)c1 [Example 20, hydrochloride] ?
[reply] -2.23

[ask] Another compound: O=C(Nc1ccc([C@H]2CNCCO2)cc1)c1cnn(-c2ccc(OC(F)F)cc2)c1 [Example 21, hydrochloride]
[reply] -2.40

[ask] What do you get for N#Cc1nccnc1-n1cc(C(=O)Nc2ccc([C@H]3CNCCO3)cc2)cn1 [Example 52, hydrochloride] ?
[reply] -1.35

[ask] Again, but for O=C(Nc1ccc([C@H]2CNCCO2)cc1)c1cnn(-c2ccc(Br)cn2)c1 [Example 9, hydrochloride]
[reply] -2.37

[ask] Same for Cc1c(C(=O)Nc2ccc([C@H]3CNCCO3)cc2)cnn1-c1ccccc1 [Example 1, hydrochloride]
[reply] -0.64
